assay-protocol: Dissolution test, paddle method (Example 15)
Type: physicochemical
run-parameters: paddle 75 rpm, 37° C., pH 6.8, 1.5% Tween 80; 12 hours; before microparticulation
measured-metric: Dissolution rate of 12 hours before microparticulation

Example entries begin here.
CC1OC2=C(C(=O)C(=O)c3c2ccc2c3CCCC2)C1(C)C (stereo not shown) [Compound 44]	13.81%
CC1(C)CCC2=C(O1)c1ccccc1C(=O)C2=O [Compound 1]	67.19%
Cc1cc2c(c3ccccc13)C(=O)C(=O)C1=C2OC(C)C1(C)C (stereo not shown) [Compound 51]	24.08%

Give me measured Dissolution rate of 12 hours before microparticulation, please, for this molecule: CC1CC2=C(O1)c1ccccc1C(=O)C2=O (stereo not shown) [Compound 5] 78.12%
